System Under Test: PD-1/PD-L1 interaction (Homo sapiens)
Construct: expressed in transfected cells; host or cells: CHO cells (aAPC-PD-L1) co-cultured with Jurkat cells overexpressing PD-1 and an NFAT-luciferase reporter
Method: PD-1/PD-L1 NFAT reporter co-culture assay
Format: cell-based
Test Settings: Jurkat PD-1 NFAT-luciferase cells co-cultured with aAPC-PD-L1 CHO cells, 6 hrs at 37° C.; read-out: EC50 NFAT Luciferase
Observation Type: EC50 (nM)
// note: answer is a bare numeric in nM

Recorded EC50 (compound COc1nc(O[C@H]2CCc3c(-c4cccc(-c5ccc(C6=NCCN6)c(OC)n5)c4Cl)cccc32)c(Br)cc1CN[C@@](C)(CO)C(=O)O [Example 789] ): 58

# compound Cc1c(COc2cc(OCc3cncc(C#N)c3)c(CNC(CO)(CO)CO)cc2Cl)cccc1-c1cccc(COc2cc(OCc3cncc(C#N)c3)c(CNC(CO)(CO)CO)cc2Cl)c1C [Example 282] ; its EC50 = 463

// sample COc1nc(OC2CCc3c(-c4cccc5c4CCC5Oc4ccc(CNC[C@@H](O)CC(=O)O)c(OC)n4)cccc32)ccc1CNC[C@@H](O)CC(=O)O (some centres unmarked) [Example 13] , its EC50 was 4800

So for Cc1c(COc2cc(OCc3cncc(C#N)c3)c(CNC[C@@H](O)CC(=O)O)cc2Cl)cccc1-c1cccc(-c2ccc(OCCNC[C@@H](O)CC(=O)O)c(C(F)(F)F)c2)c1C [Example 94] , the logged EC50 turned out to be 210

Looking up Cc1c(COc2cc(OCc3cncc(C#N)c3)c(CNC[C@@H](O)CC(=O)O)cc2Cl)cccc1-c1cccc(-c2ccc(OCCNC[C@@H](O)CC(=O)O)cc2Cl)c1C [Example 315] , I see its EC50 listed as 1250

====

Provide the reported AC50 of each item.
System Under Test: PD-L1 (Homo sapiens, UniProt Q9NZQ7)
Construct: determine if they can specifically dimerize the extracellular domains of PD-L1
Sequence (Q9NZQ7 19-238 limits assumed): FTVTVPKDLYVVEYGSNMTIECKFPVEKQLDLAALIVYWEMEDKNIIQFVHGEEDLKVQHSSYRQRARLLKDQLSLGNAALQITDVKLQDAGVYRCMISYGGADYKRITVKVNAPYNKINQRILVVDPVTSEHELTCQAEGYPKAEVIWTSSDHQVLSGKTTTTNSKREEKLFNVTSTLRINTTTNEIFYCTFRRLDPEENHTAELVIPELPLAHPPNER
Sequence (Q9NZQ7 19-238 limits assumed): as above
Method: PD-L1/PD-L1 dimerization biochemical protein-protein interaction assay (ALPHA)
Format: binding
Test Settings: compound-induced PD-L1 dimerization, head prints '1 nM' (0.5 nM His-tagged PD-L1 and 0.5 nM FLAG-tagged PD-L1), read-out: AC50 PDL1 Dimer Alpha 1 nM
The figure you give is taken to be in nM; do not add the unit.

Input Cc1c(COc2cc(OCc3cncc(C#N)c3)c(CN[C@@](C)(CO)C(=O)O)cc2Cl)cccc1-c1cccc(-c2ccc(CNCC3CCC(=O)N3)cc2)c1C (stereo partly drawn) [Example 323] . Output AC50: 67.1

Field AC50 (entry COc1nc(O[C@H]2CCc3c(-c4cccc(-c5cc(C)c(CNC[C@@H]6CCC(=O)N6)c(OC)n5)c4Cl)cccc32)c(Cl)cc1CN1CC[C@@H](C(=O)O)C1 [Example 490] ) reads 14.1

Query COc1nc(O[C@H]2CCc3c(-c4cccc(-c5ccc(C6=NCCN6)c(OC)n5)c4Cl)cccc32)c(Br)cc1CN[C@@](C)(CO)C(=O)O [Example 789] yields AC50 of 17.9

====

System Under Test: PD-L1 (Homo sapiens, UniProt Q9NZQ7)
Construct: determine if they can specifically dimerize the extracellular domains of PD-L1
Method: PD-L1/PD-L1 dimerization biochemical protein-protein interaction assay (ALPHA)
Type: binding
Test Settings: compound-induced PD-L1 dimerization, head prints '1 nM' (0.5 nM His-tagged PD-L1 and 0.5 nM FLAG-tagged PD-L1), read-out: AC50 PDL1 Dimer Alpha 1 nM
// returns criterion not met unless AC50 is strictly below 100 nM, in which case criterion met

[Q] Is 100 nM strictly greater than the compound's reported AC50? compound: `Cc1c(COc2cc(OCc3cncc(C#N)c3)c(CNC[C@@H](O)CC(=O)O)cc2Cl)cccc1-c1cccc(-c2cn3cc(CNC[C@@H](O)CC(=O)O)ccc3n2)c1C`
[A] criterion not met

[Q] Just wondering, is AC50 of `Cc1c(COc2nc(OCCCC#N)c(CNC[C@@H](O)CC(=O)O)cc2Br)cccc1-c1cccc(COc2nc(OCCCC#N)c(CNC[C@@H](O)CC(=O)O)cc2Br)c1C` below 100 nM?
[A] criterion not met

[Q] Lab note: confirm whether the reported AC50 for this compound is below 100 nM, equality not counting. compound: `COc1nc(-c2cccc(-c3cccc(-c4ccc5c(CNC[C@@H]6CCC(=O)N6)cccc5c4)c3Cl)c2Cl)ccc1CNC[C@@H]1CCC(=O)N1`
[A] criterion not met

[Q] Dear reviewer, please state whether `Cc1c(COc2cc(OCc3cncc(C#N)c3)c(CN[C@@](C)(CO)C(=O)O)cc2Cl)cccc1-c1cccc(-c2ccc(C3=NCCN3)cc2)c1C` has AC50 strictly beneath 100 nM.
[A] criterion met

[Q] Lab log: compare recorded AC50 with 100 nM; is it strictly lower for `CC(C)(NCc1cc(Cl)c(O[C@H]2CCc3c(-c4cccc(-c5ccc(OCCN6CC[C@@H](O)C6)cc5)c4Cl)cccc32)nc1OCc1cncc(S(C)(=O)=O)c1)C(=O)O` ?
[A] criterion met

====

System Under Test: PD-L1 (Homo sapiens, UniProt Q9NZQ7)
Construct: determine if they can specifically dimerize the extracellular domains of PD-L1
Method: PD-L1/PD-L1 dimerization biochemical protein-protein interaction assay (ALPHA)
Format: binding
Test Settings: compound-induced PD-L1 dimerization, head prints '1 nM' (0.5 nM His-tagged PD-L1 and 0.5 nM FLAG-tagged PD-L1), read-out: AC50 PDL1 Dimer Alpha 1 nM
Observation Type: AC50 (nM)
Answer with a number only, understood to be in nM.

Recorded AC50 (compound COc1ccc(-c2cccc(-c3cccc(COc4cc(OCc5cncc(C#N)c5)c(CN[C@@](C)(CO)C(=O)O)cc4Cl)c3C)c2C)cc1CNCC1CCC(=O)N1 (stereo partly drawn) ): 129

Lab book: AC50 of `Cc1c(COc2cc(OCc3cncc(C#N)c3)c(CNC[C@@H](O)CC(=O)O)cc2Cl)cccc1-c1cccc(-c2ccc(OC[C@@H](N)CO)cc2)c1C` noted as 215

// field: AC50; key: `Cc1c(COc2cc(OCc3cncc(C#N)c3)c(CNC(C)(C)C(=O)O)cc2Cl)cccc1-c1cccc(-c2ccc(CN(C)C)cc2)c1Br` ; value = 25.5

get_value(item= `COc1nc(-c2cccc(-c3cccc4c3CC[C@@H]4Oc3nc(OC)c(CN4CC5(CCC(=O)N5)C4)cc3Br)c2Cl)ccc1CN1CC2(CCC(=O)N2)C1` , readout=AC50) returns 104

// AC50 value for Cc1c(COc2cc(OCc3cncc(C#N)c3)c(CNC[C@@H](O)CC(=O)O)cc2Cl)cccc1-c1cccc(-c2ccc3c(c2)CC(NCCO)C3)c1C (stereo partly drawn) : 76.8

Sure, the documented AC50 for Cc1c(COc2nc(OCc3cc(C#N)cc(C#N)c3)c(CNC(C)(CO)C(=O)O)cc2Cl)cccc1-c1cccc(-c2ccc(OCCNCCO)cc2)c1C (stereo not drawn) is 80

====

System Under Test: PD-L1 (Homo sapiens)
Construct: determine if they can specifically dimerize the extracellular domains of PD-L1
Method: PD-L1/PD-L1 dimerization biochemical protein-protein interaction assay (ALPHA)
Assay type: binding
Test Settings: compound-induced PD-L1 dimerization, head prints '1 nM' (0.5 nM His-tagged PD-L1 and 0.5 nM FLAG-tagged PD-L1), read-out: AC50 PDL1 Dimer Alpha 1 nM
Each record is given condition met if its reported AC50 is strictly below 200 nM. Records at or above 200 nM are given condition not met.

[Q] Lab log: compare recorded AC50 with 200 nM; is it strictly lower for `C[C@@](CO)(NCc1cc(Cl)c(OCc2cccc(-c3cccc(-c4ccc(CNC[C@@H]5CCC(=O)N5)cc4)c3Cl)c2Cl)nc1OCc1cc(C#N)cc(C#N)c1)C(=O)O` ?
[A] condition met

[Q] Lab log: compare recorded AC50 with 200 nM; is it strictly lower for `Cc1c(COc2cc(OCc3cncc(C#N)c3)c(CN[C@H]3CC[C@@H](C(=O)O)C3)cc2Cl)cccc1-c1cccc(-c2ccc(OCCNCCO)cc2)c1C` ?
[A] condition met

[Q] Say whether its AC50 is strictly beneath 200 nM. Entry: `Cc1c(COc2cc(OCc3cncc(C#N)c3)c(CN3C[C@@H](O)C[C@H]3C(=O)O)cc2Cl)cccc1-c1cccc(-c2ccc3c(c2)CC[C@H]3N(C)C)c1C`
[A] condition not met

[Q] Determine whether this molecule shows AC50 lower than 200 nM (ties excluded): `COc1cc(-c2cccc(-c3cccc(-c4cc(F)c(CNC[C@@H]5CCC(=O)N5)c(OC)c4)c3Cl)c2Cl)cc(F)c1CNC[C@@H]1CCC(=O)N1`
[A] condition not met

[Q] Dear reviewer, please state whether `Cc1c(COc2cc(OCc3cncc(C#N)c3)c(CNC[C@@H](O)CC(=O)O)cc2Cl)cccc1-c1cccc(-c2ccc(O[C@H]3CCCN(CCO)C3)cc2)c1C` has AC50 strictly beneath 200 nM.
[A] condition not met
